- Tested on: WPMY1-TP53BP1-CLTA
- TEST_SUMMARY: phenotypically active (imaging signature differs from DMSO and reproducible) at any of 0.3-9 uM (binary (1 = active, 0 = inactive)); higher = active
- EXPERIMENTAL_CONDITIONS: treatment time: 24 h
Outcome field: choose from T = active, F = inactive

Examples with answers:
>>> classification("C=C1C/C(=C\\C)C(=O)O[C@@H]2CCN3CC=C(COC(=O)[C@]1(C)O)[C@H]23")
"F"
>>> classification("C[C@H](CCC(=O)O)C[C@H](C)C[C@H](C)C(=O)/C=C(\\O)[C@H](C)C[C@H](C)C/C=C/[C@@H](C)[C@@H](O)[C@@H](C)[C@@H](O)C[C@@H]1CC[C@@](C)([C@H]2CC[C@@](C)([C@@H](C)O)O2)O1 [Ionomycin free acid]")
"T"
>>> classification("C[N+]12CCC(CC1)C(OC(=O)C(O)(c1ccccc1)c1ccccc1)C2 (stereo unspecified)")
"F"
>>> classification("CC(C)c1cccc(C(C)C)c1O")
"F"
>>> classification("COc1ccc2c3c1O[C@H]1C(=O)CC[C@@]4(O)[C@@H](C2)N(C)CC[C@]314")
"F"

Recorded test call requested for C[C@@H]1CC[C@H]2[C@@H](C)C(=O)O[C@@H]3O[C@@]4(C)CC[C@@H]1[C@]32OO4 T

Same again, this time with CC(C)NCC(O)c1ccc(N)c(C#N)c1 (stereo unspecified) F

Same again, this time with C=C(C)[C@H]1Cc2c(ccc3c2O[C@@H]2COc4cc(OC)c(OC)cc4[C@@H]2C3=O)O1 T

* * *

- Tested on: WPMY1-CANX-COX4
- TEST_SUMMARY: phenotypically active (imaging signature differs from DMSO and reproducible) at any of 0.3-9 uM (binary (1 = active, 0 = inactive)); higher = active
- EXPERIMENTAL_CONDITIONS: treatment time: 24 h
Outcome field: choose from yes (1) (active), no (0) (inactive)

Examples with answers:
>>> classification("CC[C@H]1C[N@@]2CC[C@H]1C[C@H]2[C@@H](O)c1ccnc2ccc(O)cc12 [Hydrocupreine]")
"no (0)"
>>> classification("N#CC(C#N)=Cc1ccc(O)c(O)c1")
"no (0)"
>>> classification("C[C@@H]1CC[C@H]2[C@@H](C)C(=O)O[C@@H]3O[C@@]4(C)CC[C@@H]1[C@]32OO4")
"yes (1)"
>>> classification("O=c1ccc2ccc3occc3c2o1")
"no (0)"

Recorded test call requested for C/C=C1/C[N+]2(C)CC[C@]34C(=C(C=O)[C@H]1C[C@@H]32)Nc1ccccc14 (stereo not given in full) [Fluorocurarine chloride] no (0)

* * *

- Test system: HepG2-CANX-COX4
- TEST_SUMMARY: phenotypically active (imaging signature differs from DMSO and reproducible) at any of 0.3-9 uM (binary (1 = active, 0 = inactive)); higher = active
- EXPERIMENTAL_CONDITIONS: treatment time: 24 h
// values below are reported phenotypically active
Just the number, please, no unit after it.

Lookup: phenotypically active / HepG2-CANX-COX4 / CC[C@@H]1C=CC=CC[C@H](C)[C@@H](O)[C@](C)(O)C(=O)[C@H](C)[C@@H](O)[C@H](C)C(=O)[C@H](C)[C@@H](O)[C@H](C)C=CC(=O)O[C@H]2[C@@H](C)[C@@H](CC1)O[C@@]1(CC[C@@H](C)[C@@H](C[C@H](C)O)O1)[C@@H]2C [Oligomycin A] 1

Same again, this time with C/C=C1\C[C@@H](C)[C@](O)(CO)C(=O)OCC2=CCN3CC[C@@H](OC1=O)[C@@H]23 [Retrorsine] 0

Same again, this time with CNC(=O)Oc1ccc2c(c1)[C@]1(C)CCN(C)O[C@@H]1N2C [Geneserine] 0

* * *

- Tested on: WPMY1-ACTB-RAB5A
- TEST_SUMMARY: phenotypically active (imaging signature differs from DMSO and reproducible) at any of 0.3-9 uM (binary (1 = active, 0 = inactive)); higher = active
- EXPERIMENTAL_CONDITIONS: treatment time: 24 h
Where a name gives a salt, the structure may show the parent alone.
Outcome field: choose from active, inactive

Examples with answers:
>>> classification("COc1ccc(CCN2CCC(Nc3nc4ccccc4n3Cc3ccc(F)cc3)CC2)cc1")
"active"
>>> classification("c1ccc([C@@H]2C[C@H]2NC2CCNCC2)cc1 [GSK LSD 1 dihydrochloride]")
"inactive"
>>> classification("O=C1CN=C(c2ccccc2)c2cc(Cl)ccc2N1CC(F)(F)F")
"inactive"
>>> classification("N#CC(C#N)=NNc1ccc(OC(F)(F)F)cc1")
"active"
>>> classification("BrC1C(Br)C(Br)C(Br)C(Br)C1Br (centres undefined)")
"inactive"

Recorded test call requested for CN1[C@@H]2CC[C@H]1C[C@@H](OC(=O)[C@H](CO)c1ccccc1)C2 inactive

Same again, this time with Cc1c(C(=O)c2cccc3ccccc23)c2cccc3c2n1[C@H](CN1CCOCC1)CO3 [WIN 55,212-2 mesylate] active

Same again, this time with N[C@H]1C[C@@H]1c1ccccc1 inactive

Same again, this time with CC(C)[C@H]1C(=O)O[C@@H]2CCN3CC=C(COC(=O)[C@](C)(O)[C@@]1(C)O)[C@H]23 inactive

* * *

- Test system: HepG2-CANX-COX4
- TEST_SUMMARY: phenotypically active (imaging signature differs from DMSO and reproducible) at any of 0.3-9 uM (binary (1 = active, 0 = inactive)); higher = active
- EXPERIMENTAL_CONDITIONS: treatment time: 24 h
Structures can show the parent of a compound that is named as a salt.
Outcome field: choose from Y (active), N (inactive)

>>> classification("Cc1sc2c(c1C)C(c1ccc(Cl)cc1)=N[C@H](CC(=O)OC(C)(C)C)c1nnc(C)n1-2")
"Y"
>>> classification("CCCN1CCC[C@@H]2Cc3n[nH]cc3C[C@H]21 [(-)-Quinpirole hydrochloride]")
"N"
>>> classification("CN1[C@@H]2CC(=O)C[C@H]1[C@H](O)C2 [6-Hydroxytropinone]")
"N"

Now consider the entry below.
Recorded test call requested for Oc1ccc2c3c1O[C@H]1[C@@H](O)CC[C@@]4(O)[C@@H](C2)N(CC2CCC2)CC[C@]314 N

* * *

- System: A549-ACTB-RAB5A
- TEST_SUMMARY: lowest phenotypically active concentration; higher = less potent
- EXPERIMENTAL_CONDITIONS: treatment time: 24 h
QUANTITY_MEASURED: lowest phenotypically active concentration

>>> obs_value("COC(=O)[C@@]1(O)C[C@H]2O[C@]1(C)n1c3ccccc3c3c4c(c5c6ccccc6n2c5c31)C(=O)NC4")
"≤ 0.3 µM"
>>> obs_value("Cc1sc2c(c1C)C(c1ccc(Cl)cc1)=N[C@@H](CC(N)=O)c1nnc(C)n1-2")
"≤ 0.3 µM"
>>> obs_value("CCCCCC[C@H]1C(=O)O[C@H](C)[C@H](NC(=O)c2cccc(NC=O)c2O)C(=O)O[C@@H](C)[C@@H]1OC(=O)CC(C)C [antimycin a]")
"≤ 0.3 µM"

Attention now shifts to the item below.
lowest phenotypically active concentration for CC(C)(C)c1cc(C=C(C#N)C#N)cc(C(C)(C)C)c1O ? 1 µM

* * *

- System: A549-CANX-COX4
- TEST_SUMMARY: phenotypically active (imaging signature differs from DMSO and reproducible) at any of 0.3-9 uM (binary (1 = active, 0 = inactive)); higher = active
- EXPERIMENTAL_CONDITIONS: treatment time: 24 h
Structures can show the parent of a compound that is named as a salt.
QUANTITY_MEASURED: phenotypically active

// below: answered compounds
>>> obs_value("CCCCCCCCCC(=O)O[C@H]1CC[C@H]2[C@@H]3CCC4=CC(=O)CC[C@@H]4[C@H]3CC[C@]12C [nandrolone-decanoate]")
"0 (inactive)"
>>> obs_value("CNCC(O)c1ccc(O)c(OC)c1 (stereo not drawn) [Metanephrine hydrochloride DL]")
"0 (inactive)"
>>> obs_value("CCN1CCN(C(=O)Cc2ccc(Nc3ncc(F)c(Nc4ccc(C(=O)Nc5ccccc5Cl)cc4)n3)cc2)CC1")
"1 (active)"

phenotypically active for C[C@H]1CCCC=C[C@@H]2C[C@H](O)C[C@H]2[C@H](O)C=CC(=O)O1 ? 1 (active)

Same again, this time with C=C1[C@@H](C)[C@H]2[C@H](Cc3ccccc3)NC(=O)[C@]23OC(=O)C=C[C@H](O)CCC[C@@H](C)CC=C[C@H]3[C@@H]1O 1 (active)

Same again, this time with CN1C(=O)CN=C(c2ccccc2)c2cc(Cl)ccc21 0 (inactive)

Same again, this time with COc1cc2c(cc1O)C[C@H]1c3c(cc(O)c(OC)c3-2)CCN1C 0 (inactive)

Same again, this time with COc1cc2c(c(OC)c1OC)-c1ccc(O)c(=O)cc1[C@@H](N)CC2 1 (active)

// provenance: the supplement of paper PMC7411054
